System: Nucleic Acid
protocolDescription: Binding affinity to 5'-ATGGTA-3' in Escherichia coli pCDMF6 by DNase1 foot-printing titration method
Assay type: nucleic-acid assay
measurementType: Ka (×10⁹ /M)
Kindly provide the numeric value in ×10⁹ /M only, without the unit symbol.

CC(=O)N[C@@H](CNC(=O)c1cc(NC(=O)c2nc(NC(=O)c3nccn3C)cn2C)cn1C)CC(=O)Nc1cc(C(=O)Nc2cc(C(=O)Nc3cc(C(=O)NCCC(=O)NCCCN(C)C)n(C)c3)n(C)c2)n(C)c1 : 5.2

Bench note: what Ka did CN(C)CCCNC(=O)CCNC(=O)c1cc(NC(=O)c2cc(NC(=O)c3cc(NC(=O)C[C@@H](N)CNC(=O)c4cc(NC(=O)c5nc(NC(=O)c6nccn6C)cn5C)cn4C)cn3C)cn2C)cn1C show?
1.8

====

Reported Ka values are given for each entry in this list.
Test system: Nucleic Acid
protocolDescription: Binding affinity to 5'-ATGGTA-3' in Escherichia coli pCDMF6 by DNase1 foot-printing titration method
Type: nucleic-acid assay
Kindly provide the numeric value in ×10⁹ /M only, without the unit symbol.

CN(C)CCCNC(=O)CCNC(=O)c1cc(NC(=O)c2cc(NC(=O)c3cc(NC(=O)C[C@H](N)CNC(=O)c4cc(NC(=O)c5nc(NC(=O)c6nccn6C)cn5C)cn4C)cn3C)cn2C)cn1C : 1.3

Bench note: what Ka did CN(C)CCCNC(=O)CCNC(=O)c1cc(NC(=O)c2cc(NC(=O)c3cc(NC(=O)[C@H](N)CCNC(=O)c4cc(NC(=O)c5nc(NC(=O)c6nccn6C)cn5C)cn4C)cn3C)cn2C)cn1C show?
1.7

====

Test system: Nucleic Acid
protocolDescription: Binding affinity to 5'-ATGGTT-3' in Escherichia coli pCDMF6 by DNase1 foot-printing titration method
Format: nucleic-acid assay
Reported Ka values are given for each entry in this list.
Kindly provide the numeric value in ×10⁹ /M only, without the unit symbol.

Bench note: what Ka did CN(C)CCCNC(=O)CCNC(=O)c1cc(NC(=O)c2cc(NC(=O)c3cc(NC(=O)C[C@@H](N)CNC(=O)c4cc(NC(=O)c5nc(NC(=O)c6nccn6C)cn5C)cn4C)cn3C)cn2C)cn1C show?
3.3

Then CN(C)CCCNC(=O)CCNC(=O)c1cc(NC(=O)c2cc(NC(=O)c3cc(NC(=O)[C@H](N)CCNC(=O)c4cc(NC(=O)c5nc(NC(=O)c6nccn6C)cn5C)cn4C)cn3C)cn2C)cn1C ?
1.6

Then CN(C)CCCNC(=O)CCNC(=O)c1cc(NC(=O)c2cc(NC(=O)c3cc(NC(=O)C[C@H](N)CNC(=O)c4cc(NC(=O)c5nc(NC(=O)c6nccn6C)cn5C)cn4C)cn3C)cn2C)cn1C ?
1.1

Then CC(=O)N[C@@H](CNC(=O)c1cc(NC(=O)c2nc(NC(=O)c3nccn3C)cn2C)cn1C)CC(=O)Nc1cc(C(=O)Nc2cc(C(=O)Nc3cc(C(=O)NCCC(=O)NCCCN(C)C)n(C)c3)n(C)c2)n(C)c1 ?
2

====

System: Nucleic Acid
protocolDescription: Binding affinity to 11mer DNA duplex 5'-CTATGGTAGAC-3' assessed as change in melting temperature by spectroscopic analysis
Format: nucleic-acid assay
Reported ΔTm values are given for each entry in this list.
Kindly provide the numeric value in °C only, without the unit symbol.

Previously resolved entries follow.
CN(C)CCCNC(=O)CCNC(=O)c1cc(NC(=O)c2cc(NC(=O)c3cc(NC(=O)[C@@H](F)CCNC(=O)c4cc(NC(=O)c5nc(NC(=O)c6nccn6C)cn5C)cn4C)cn3C)cn2C)cn1C : 7.9
CC(=O)N[C@H](CCNC(=O)c1cc(NC(=O)c2nc(NC(=O)c3nccn3C)cn2C)cn1C)C(=O)Nc1cc(C(=O)Nc2cc(C(=O)Nc3cc(C(=O)NCCC(=O)NCCCN(C)C)n(C)c3)n(C)c2)n(C)c1 : 10.1
CN(C)CCCNC(=O)CCNC(=O)c1cc(NC(=O)c2cc(NC(=O)c3cc(NC(=O)C[C@H](N)CNC(=O)c4cc(NC(=O)c5nc(NC(=O)c6nccn6C)cn5C)cn4C)cn3C)cn2C)cn1C : 14.7

Query for Nucleic Acid: what ΔTm does the record show for CN(C)CCCNC(=O)CCNC(=O)c1cc(NC(=O)c2cc(NC(=O)c3cc(NC(=O)[C@@H](O)CCNC(=O)c4cc(NC(=O)c5nc(NC(=O)c6nccn6C)cn5C)cn4C)cn3C)cn2C)cn1C ?
5.8

Then CN(C)CCCNC(=O)CCNC(=O)c1cc(NC(=O)c2cc(NC(=O)c3cc(NC(=O)CCCNC(=O)c4cc(NC(=O)c5nc(NC(=O)c6nccn6C)cn5C)cn4C)cn3C)cn2C)cn1C ?
9.2

Then CN(C)CCCNC(=O)CCNC(=O)c1cc(NC(=O)c2cc(NC(=O)c3cc(NC(=O)[C@H](F)CCNC(=O)c4cc(NC(=O)c5nc(NC(=O)c6nccn6C)cn5C)cn4C)cn3C)cn2C)cn1C ?
8.3

====

Reported Ka values are given for each entry in this list.
Test system: Nucleic Acid
protocolDescription: Binding affinity to 5'-ATGGTTC-3' in Escherichia coli pCDMF6 by DNase1 foot-printing titration method
Type: nucleic-acid assay
Kindly provide the numeric value in ×10⁷ /M only, without the unit symbol.

Previously resolved entries follow.
CN(C)CCCNC(=O)CCNC(=O)c1cc(NC(=O)c2cc(NC(=O)c3cc(NC(=O)[C@H](N)CCNC(=O)c4cc(NC(=O)c5nc(NC(=O)c6nccn6C)cn5C)cn4C)cn3C)cn2C)cn1C : 3.9
CN(C)CCCNC(=O)CCNC(=O)c1cc(NC(=O)c2cc(NC(=O)c3cc(NC(=O)C[C@H](N)CNC(=O)c4cc(NC(=O)c5nc(NC(=O)c6nccn6C)cn5C)cn4C)cn3C)cn2C)cn1C : 6
CC(=O)N[C@@H](CNC(=O)c1cc(NC(=O)c2nc(NC(=O)c3nccn3C)cn2C)cn1C)CC(=O)Nc1cc(C(=O)Nc2cc(C(=O)Nc3cc(C(=O)NCCC(=O)NCCCN(C)C)n(C)c3)n(C)c2)n(C)c1 : 8.9

// next item, Ka requested
Bench note: what Ka did CN(C)CCCNC(=O)CCNC(=O)c1cc(NC(=O)c2cc(NC(=O)c3cc(NC(=O)C[C@@H](N)CNC(=O)c4cc(NC(=O)c5nc(NC(=O)c6nccn6C)cn5C)cn4C)cn3C)cn2C)cn1C show?
5

====

System: Nucleic Acid
protocolDescription: Binding affinity to 11mer DNA duplex 5'-CTATGGTAGAC-3' assessed as change in melting temperature by spectroscopic analysis
Type: nucleic-acid assay
measurementType: ΔTm (°C)
Kindly provide the numeric value in °C only, without the unit symbol.

CC(=O)N[C@@H](CNC(=O)c1cc(NC(=O)c2nc(NC(=O)c3nccn3C)cn2C)cn1C)CC(=O)Nc1cc(C(=O)Nc2cc(C(=O)Nc3cc(C(=O)NCCC(=O)NCCCN(C)C)n(C)c3)n(C)c2)n(C)c1 : 12.2

Bench note: what ΔTm did CN(C)CCCNC(=O)CCNC(=O)c1cc(NC(=O)c2cc(NC(=O)c3cc(NC(=O)C[C@@H](N)CNC(=O)c4cc(NC(=O)c5nc(NC(=O)c6nccn6C)cn5C)cn4C)cn3C)cn2C)cn1C show?
14.9

Then CN(C)CCCNC(=O)CCNC(=O)c1cc(NC(=O)c2cc(NC(=O)c3cc(NC(=O)[C@H](O)CCNC(=O)c4cc(NC(=O)c5nc(NC(=O)c6nccn6C)cn5C)cn4C)cn3C)cn2C)cn1C ?
10

Then CN(C)CCCNC(=O)CCNC(=O)c1cc(NC(=O)c2cc(NC(=O)c3cc(NC(=O)[C@H](N)CCNC(=O)c4cc(NC(=O)c5nc(NC(=O)c6nccn6C)cn5C)cn4C)cn3C)cn2C)cn1C ?
14.7
